- experimental target: T1, SIRP-α human v2 (human, UniProt P78324 31-149, limits assumed)
- T1 construct: Soluble analyte in SPR
- T1 sequence (P78324 other isoform, or with tags, fused parts or gaps limits assumed): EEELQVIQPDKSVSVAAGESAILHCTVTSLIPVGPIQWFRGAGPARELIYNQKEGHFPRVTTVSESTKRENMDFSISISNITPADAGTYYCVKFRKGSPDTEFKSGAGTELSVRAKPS
- method notes: SPR, antibody on GLC chip, SIRP as analyte
Each entry below carries its recorded Kd.
readout: Kd (nM)

binder	readout	reading
Anti-SIRP-α antibody 135, light chain wt, heavy chain Mut_V34M (antibody, V domains shown, Whole antibody) VH: EVQLVESGGGVVQPGGSLRLSCAASGFSFSIYAMSWVRQAPGKGLEWVSTIGADDTYYADSVKGRFTISRDNSKNTLYLQMNSLRAEDTAVYYCAKDSTVGWSGDFFDYWGQGTLVTVSS VL: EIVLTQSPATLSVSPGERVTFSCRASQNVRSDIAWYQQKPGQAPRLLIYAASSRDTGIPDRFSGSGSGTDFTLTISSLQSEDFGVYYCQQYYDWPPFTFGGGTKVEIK	Kd	0.016
Anti-SIRP-α antibody 136, light chain Mut_I2T, heavy chain Mut_V34M (antibody, V domains shown, Whole antibody) VH: EVQLVESGGGVVQPGRSLRLSCAASGFTFSSYDMNWVRQAPGKGLEWVSLISGSGEIIYYADSVKGRFTISRDNSKNTLYLQMNSLRAEDTAVYYCAKENNRYRFFDDWGQGTLVTVSS VL: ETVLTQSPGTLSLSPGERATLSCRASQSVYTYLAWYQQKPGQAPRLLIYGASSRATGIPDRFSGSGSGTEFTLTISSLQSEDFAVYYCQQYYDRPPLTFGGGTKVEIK	Kd	17
Anti-SIRP-α antibody 135, light chain Mut, heavy chain Mut (antibody, V domains shown, Whole antibody) VH: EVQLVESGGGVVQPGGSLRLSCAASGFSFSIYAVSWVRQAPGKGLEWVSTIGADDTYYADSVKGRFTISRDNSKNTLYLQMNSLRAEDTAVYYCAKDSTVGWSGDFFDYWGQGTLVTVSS VL: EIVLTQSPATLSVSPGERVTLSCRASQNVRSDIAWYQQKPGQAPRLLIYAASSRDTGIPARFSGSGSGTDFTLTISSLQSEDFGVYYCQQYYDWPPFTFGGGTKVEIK	Kd	0.018
